Entries and their EC50 values follow.
Biological target: human TREM2 (Homo sapiens)
Construct: expressed in transfected cells; host or cells: HEK293T-hTREM2 cells (HEK cell line expressing human TREM2 and DAP12)
Test: In vitro measurement of TREM2 activity using cellular phosphorylation of spleen tyrosine kinase (Syk), AlphaLisa, HEK293T-hTREM2 cells
Type: cell-based
Details: HEK293T cells expressing human TREM2 and DAP12, 45 min at room temperature, Table D

[
  {
    "compound": "CN(C)c1nc2nc(C3CCO[C@@H](c4cnn(C5CC5)c4)C3)nc(-c3ccc(F)c(F)c3F)c2s1 (stereo in doubt) [compound 107]",
    "target entity": "human TREM2 (Homo sapiens)",
    "EC50": "≤ 50 nM"
  },
  {
    "compound": "CN(C)c1nc2nc(N3CCO[C@@H](c4cnn(C5CC5)c4)C3)nc(-c3ccc(F)cc3F)c2s1",
    "target entity": "human TREM2 (Homo sapiens)",
    "EC50": "≤ 50 nM"
  },
  {
    "compound": "Cc1ccc(-c2nc(N3C[C@@H](C)O[C@@H](c4cnn(C5CC5)c4)C3)nc3nc(N(C)C)sc23)c(F)c1",
    "target entity": "human TREM2 (Homo sapiens)",
    "EC50": "≤ 50 nM"
  },
  {
    "compound": "C[C@@H]1CN(c2nc(C34CC(C(F)(F)F)(C3)C4)c3c(n2)nc(N(C)C)n3C)C[C@H](c2cnn(C3CC3)c2)O1",
    "target entity": "human TREM2 (Homo sapiens)",
    "EC50": "≤ 50 nM"
  },
  {
    "compound": "C[C@@H]1CN(c2nc(-c3ccc(C(F)(F)F)cc3F)c3[nH]c(N(C)C)nc3n2)C[C@H](c2cnn(C3CC3)c2)O1",
    "target entity": "human TREM2 (Homo sapiens)",
    "EC50": "50 to 500 nM"
  },
  {
    "compound": "CC(C)c1nc2nc(N3C[C@@H](C)O[C@@H](c4cnn(C5CC5)c4)C3)nc(-c3ccc(F)cc3F)c2s1",
    "target entity": "human TREM2 (Homo sapiens)",
    "EC50": "≤ 50 nM"
  }
]

human TREM2 (Homo sapiens) assay, compound CC(C)Oc1nc2nc(N3C[C@@H](C)O[C@@H](c4cnn(C5CC5)c4)C3)nc(-c3ccc(C(F)(F)F)cc3F)c2s1 , recorded EC50 = 500 to 3000 nM

====

In this section we review reported EC50 values for a set of compounds.
Target: human TREM2 (Homo sapiens, UniProt Q9NZC2)
Construct: expressed in transfected cells; host or cells: HEK293T-hTREM2 cells (HEK cell line expressing human TREM2 and DAP12)
Sequence (Q9NZC2 19-230): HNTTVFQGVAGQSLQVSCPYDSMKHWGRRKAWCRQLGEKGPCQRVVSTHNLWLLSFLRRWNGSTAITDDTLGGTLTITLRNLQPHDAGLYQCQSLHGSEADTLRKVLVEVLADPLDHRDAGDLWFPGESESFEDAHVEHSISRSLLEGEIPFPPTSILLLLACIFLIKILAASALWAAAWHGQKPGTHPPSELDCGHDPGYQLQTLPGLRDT
Sequence (O43914 22-113 partner): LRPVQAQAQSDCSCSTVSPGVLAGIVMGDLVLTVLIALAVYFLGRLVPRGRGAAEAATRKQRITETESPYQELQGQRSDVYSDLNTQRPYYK
Experiment: In vitro measurement of TREM2 activity using cellular phosphorylation of spleen tyrosine kinase (Syk), AlphaLisa, HEK293T-hTREM2 cells
Type: cell-based
Settings: HEK293T cells expressing human TREM2 and DAP12, 45 min at room temperature, Table D

Please review the entries below; each comes with its answer.
[
  {
    "compound": "Cc1cc([C@@H]2C[C@H](c3nc(-c4ccc(F)cc4F)c4sc(N(C)C)nc4n3)CCO2)ccn1 [compound 115]",
    "EC50": "500 to 3000 nM"
  },
  {
    "compound": "CN(C)c1nc2nc(C3CCO[C@@H](c4cnn(C5CC5)c4)C3)nc(-c3ccc(F)c(F)c3F)c2s1 (stereo in doubt) [compound 108]",
    "EC50": "50 to 500 nM"
  },
  {
    "compound": "Cc1cc([C@H]2C[C@@H](c3nc(-c4ccc(F)cc4F)c4sc(N(C)C)nc4n3)CCO2)ccn1 [compound 116]",
    "EC50": "≤ 50 nM"
  },
  {
    "compound": "CN(C)c1nc2nc([C@H]3CCO[C@@H](c4cnn(C5CC5)c4)C3)nc(-c3cc(F)c(Cl)cc3F)c2s1 [compound 105]",
    "EC50": "≤ 50 nM"
  },
  {
    "compound": "C[C@@H]1CN(c2nc(-c3ccc(C(F)(F)F)cc3)c3sc(N(C)C)nc3n2)C[C@H](c2cnn(C3CC3)c2)O1 [compound 117]",
    "EC50": "50 to 500 nM"
  },
  {
    "compound": "C[C@@H]1CN(c2cc(-c3ccc(F)cc3F)n3ncnc3n2)C[C@H](c2cnn(C3CC3)c2)O1 [compound 131]",
    "EC50": "500 to 3000 nM"
  }
]

Record summary for CN(C)c1nc2nc(C3CCO[C@@H](c4cnn(C5CC5)c4)C3)nc(-c3cc(F)ccc3F)c2s1 (mixture of isomers) [compound 104] : reported EC50 = 50 to 500 nM
